// provenance: patent US20240116877A1

Recorded pIC50 for the following molecules
Tested on: Ba/F3 KIT mutant cells
Method description: Ba/F3 mutant KIT Cell Proliferation Assays (resazurin)
Type: cell-based
Measurement context: Mus musculus, BaF3; Ba/F3 KIT exon11del-V654A mutant cell proliferation; read-out: exon11del-V654A IC50
pIC50: −log10 of the molar value.

Solved entries:
INSERT INTO assay_data (smiles_repr, observable, reported_result) VALUES
  ('COCCOc1ccc2ncnc(Nc3ccc(NC(=O)NCCC(C)(C)F)cc3)c2c1F', 'pIC50', '< 6.00'),
  ('COc1cc2ncnc(Nc3ccc(NC(=O)CC(=O)NCC(C)(C)C)cc3)c2cc1OC', 'pIC50', '< 6.00'),
  ('COCCOc1cc(F)c2c(Nc3ccc(NC(=O)NCC=C(C)C)cc3)ncnc2c1', 'pIC50', '≥ 8.00');

For CC(C)(F)CCNC(=O)Nc1ccc(Nc2ncnc3cc(OCCC4COC4)cc(F)c23)cc1 the molecule record lists pIC50 as 7.00 to 8.00

The measured pIC50 associated with COCCOc1cc(F)c2c(Nc3ccc(NC(=O)CC(=O)NCC4CC(F)(F)C4)cc3)ncnc2c1 reads 7.00 to 8.00

Lab note: measured pIC50 of COCCOc1cc(F)c2c(Nc3ccc(NC(=O)CC(=O)N(C)C(C)C)cc3)ncnc2c1 was 7.00 to 8.00

// pIC50 value for COCCOc1cc(F)c2c(Nc3ccc(NC(=O)CNC(=O)C(C)(C)C)cc3)ncnc2c1 : 7.00 to 8.00

Quick note, pIC50 for COCCOc1cc(F)c2c(Nc3ccc(NC(=O)C4(C(=O)NCCC(C)(C)F)CC4)cc3)ncnc2c1 landed at 7.00 to 8.00
